biological target: Virion infectivity factor (Human immunodeficiency virus type 1 group M subtype B (isolate BH10)) + Virion infectivity factor (Human immunodeficiency virus type 1 group M subtype B (isolate BRU/LAI)) + Virion infectivity factor (Human immunodeficiency virus type 1 group M subtype B (isolate PCV12)) + Virion infectivity factor (Human immunodeficiency virus type 1 group M subtype B (isolate HXB2)) + DNA dC->dU-editing enzyme APOBEC-3G (Homo sapiens) (UniProt P69720+P69721+P69722+P69723+Q9HC16); assay: HIV-1 Vif–A3G interaction blockers – biochemical, TR-FRET, GST-Vif 1-94, biotin-A3G peptide, dose response retest, primary screen (AID 1117319); settings: TR-FRET GST-Vif / biotin-A3G peptide binding;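 also: Vif residues 1-94 fused to GST binding biotinylated APOBEC3G peptide 110-148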
Records with an inconclusive call do not appear.
measured endpoint: IC50

- Cc1cc(/C=C2\C(=O)NC(=O)N(c3cccc(F)c3)C2=O)c(C)n1-c1cc(C(=O)O)cc(C(=O)O)c1: 10.2 µM
- Cc1c(Br)c(O)c(Br)c2sc(=O)oc12: 1.77 µM
- COc1ccc(Cl)cc1NC(=O)CCS(=O)(=O)c1ccc(Br)cc1: 8.09 µM
- O=C(O)CCCNc1cc(N2CCC3(CC2)OCCO3)c2noc3c2c1C(=O)c1ccccc1-3: 0.97 µM
- CCCCC1=CC2=CC(=O)C(C)(OC(=O)c3cnc4ccccc4n3)C(=O)C2=CO1 (stereo not given): 12.4 µM
- O=C(O)Cc1ccc(N=Nc2c(O)c(C(=O)O)cc3ccccc23)cc1: 10.5 µM
- O=C(CCCCCN1C(=O)CCC1=O)Nc1ccc(Cl)c(C(F)(F)F)c1: 3.93 µM
- O=C(O)c1ccc(S(=O)(=O)c2ccc([N+](=O)[O-])cc2[N+](=O)[O-])cc1: 53.3 µM
- O=C(CCS(=O)(=O)c1ccc(Br)cc1)NCCc1ccccc1: 28.9 µM
- Cc1ccc(OCCSc2nnc(-c3ccncc3)n2C)cc1: 75.9 µM

====

molecular target: Virion infectivity factor (Human immunodeficiency virus type 1 group M subtype B (isolate BH10)) + Virion infectivity factor (Human immunodeficiency virus type 1 group M subtype B (isolate BRU/LAI)) + Virion infectivity factor (Human immunodeficiency virus type 1 group M subtype B (isolate PCV12)) + Virion infectivity factor (Human immunodeficiency virus type 1 group M subtype B (isolate HXB2)) + DNA dC->dU-editing enzyme APOBEC-3G (Homo sapiens) (UniProt P69720+P69721+P69722+P69723+Q9HC16); assay: HIV-1 Vif–A3G interaction blockers – biochemical, TR-FRET, GST-Vif 1-94, biotin-A3G peptide, dose response retest, primary screen (AID 1117319); details: TR-FRET GST-Vif / biotin-A3G peptide binding;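 also: Vif residues 1-94 fused to GST binding biotinylated APOBEC3G peptide 110-148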
Results filed as inconclusive are left out.
Listed here: items and their measured IC50.
measured endpoint: IC50

• CN(C)c1ccc(N/C=C/C(=O)c2ccco2)cc1 = 30.8 µM
• COc1cc(CC(=O)OCC(=O)Nc2cccc([N+](=O)[O-])c2)cc(OC)c1OC = 11.8 µM
• O=C(c1ccc2nc(-c3ccco3)c(-c3ccco3)nc2c1)N1CCC2(CC1)OCCO2 = 0.35 µM
• Cc1ccc(-n2nc(C)c(C3C(C#N)=C(N)Oc4c3c(=O)oc3ccccc43)c2Cl)cc1 (stereo not drawn) = 11.1 µM
• CC1CCCCN1Cc1ccc(N(C)C)cc1 (stereo not drawn) = 66.6 µM
• O=C1NC(c2ccc(Br)cc2)=N/C1=C/c1ccco1 = 7.41 µM
• S=c1nc(-c2ccc(Br)cc2)oc2c1CCCC2 = 61.7 µM
• CCC(=O)NNc1ncnc2ccccc12 = 16.4 µM
• CCCC(=Nc1ccc(N)cc1)C1=C(O)C(C(=O)OC)C(C)(C)CC1=O (stereo not drawn) = 2.76 µM
• COC1=C(N)C(=O)c2nc(-c3nc(C(=O)O)c(C)c(-c4ccc(OC)c(OC)c4O)c3N)ccc2C1=O = 10.8 µM
• O=C1NN(c2ccc(Cl)cc2)C(=O)/C1=C\c1ccc(-c2cccc(C(=O)O)c2)o1 = 5.76 µM
• CNCc1ccccc1Sc1cc(O)ccc1O = 3.46 µM
• O=C(CSc1nc2ccccc2n1CCc1ccccc1)c1ccc(O)c(O)c1 = 2.14 µM
• CC(/C=C1\SC(=S)N(CCCC(=O)Nc2ccc(C(=O)O)c(O)c2)C1=O)=C\c1ccccc1 = 5.1 µM
• Cc1cc(C)c(S(=O)(=O)NCC2CCC(C(=O)N3CCC4(CC3)OCCO4)CC2)c(C)c1 (stereo not drawn) = 39.6 µM
• Nc1cc(C(=O)O)ccc1N1CCCCC1 = 15 µM
• Oc1ccc(/C=N/N2CCOCC2)c(O)c1O = 12.5 µM
• CCOC(=O)c1c(NC(=O)c2cccs2)sc(C)c1C = 32.9 µM
• CCOc1cccc(=O)c2c(C)n(CC(=O)c3ccccc3)c(C)c12 = 8.28 µM
• CCN(CC(=O)Nc1c(F)cccc1F)C(=O)c1cccc(-n2cccc2)c1 = 20.9 µM
• CCOC(=O)C(=O)Cc1cccnn1 = 0.65 µM
• O=C(O)c1cc(Nc2cc(Cl)c3nonc3c2[N+](=O)[O-])ccc1O = 57.6 µM
• NC(=O)/C(=C/c1ccco1)C(N)=S = 9.35 µM
